EXPERIMENT DESCRIPTION: recombinant UMI read abundance after kanamycin selection (control-corrected) (log10(CPM+1)); higher = more efficient recombination; extreme values may be limits of the assay; sequences stand for … in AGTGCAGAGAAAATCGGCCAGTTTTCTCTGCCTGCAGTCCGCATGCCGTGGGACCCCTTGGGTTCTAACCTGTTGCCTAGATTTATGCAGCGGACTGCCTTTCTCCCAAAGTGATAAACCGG…AGGTTGGTTTCACT; site = the 11-nt donor
Would you mind labelling by recombinant UMI read abundance (log10)? At or over 0.03 is label 1, under is label 0.

Solved entries (count: 4):
MONOMER SEQUENCE | CLASS NAME
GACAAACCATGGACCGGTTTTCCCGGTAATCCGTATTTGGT (site GACAAACCTAC) | label 0
TCGACCGCATGGACCGGTTTTCCCGGTAATCCGTATTTGCG (site TCCACCGCTCG) | label 0
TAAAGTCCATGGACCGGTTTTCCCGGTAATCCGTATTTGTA (site TCAAGTCCTTA) | label 0
TTAGGTACATGGACCGGTTTTCCCGGTAATCCGTATTTGAC (site GTAGGTACTGT) | label 0

Kindly review the next sequence as well.
**Q:** Exam item: decide whether the reported recombinant UMI read abundance (log10) for GGCCTAGCATGGACCGGTTTTCCCGGTAATCCGTATTTGTT (site AGCCTAGCTAA) is at least 0.03.
**A:** label 0

====

EXPERIMENT DESCRIPTION: recombinant UMI read abundance after kanamycin selection (control-corrected) (log10(CPM+1)); higher = more efficient recombination; extreme values may be limits of the assay; sequences stand for … in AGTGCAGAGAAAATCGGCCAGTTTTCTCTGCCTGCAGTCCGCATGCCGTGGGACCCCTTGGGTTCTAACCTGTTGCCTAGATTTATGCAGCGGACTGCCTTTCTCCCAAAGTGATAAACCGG…AGGTTGGTTTCACT; site = the 11-nt donor
Would you mind labelling by recombinant UMI read abundance (log10)? At or over 0.02 is Y, under is N.

The examples below pair each entry with its known result.
MONOMER SEQUENCE | CLASS NAME
AACCGTACATGGACCGGTTTTCCCGGTAATCCGTATTTGAT (site AACCGTGCTAT) | Y
AGCCGTTCATGGACCGGTTTTCCCGGTAATCCGTATTTGAC (site AGCCCTTCTGT) | N
TTCTTCCCATGGACCGGTTTTCCCGGTAATCCGTATTTGGC (site TTCTTCCCTGC) | N
TTAGCTGCATGGACCGGTTTTCCCGGTAATCCGTATTTGTT (site TTAGCTGCTAA) | Y
GAGGATGCATGGACCGGTTTTCCCGGTAATCCGTATTTGAA (site GAGGATGCTTT) | Y
AGGTCAGCATGGACCGGTTTTCCCGGTAATCCGTATTTGGG (site AGATCAGCTCC) | Y
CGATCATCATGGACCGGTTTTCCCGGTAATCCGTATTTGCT (site TGATCAACTAG) | N

Kindly review the next sequence as well.
**Q:** API: above_or_equal(metric=recombinant UMI read abundance (log10), cutoff=0.02) for item GCACGAACATGGACCGGTTTTCCCGGTAATCCGTATTTGTC (site GCACGAACTGA)
**A:** Y

====

EXPERIMENT DESCRIPTION: recombinant barcode read abundance after kanamycin selection (control-corrected) (log10(CPM+1)); higher = more efficient recombination; sequences stand for … in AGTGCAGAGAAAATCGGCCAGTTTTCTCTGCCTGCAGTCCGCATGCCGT…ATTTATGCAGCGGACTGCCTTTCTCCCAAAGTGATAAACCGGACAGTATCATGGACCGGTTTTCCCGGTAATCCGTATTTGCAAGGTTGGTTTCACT; site = the 11-nt target
Param threshold (0.1) applies to recombinant barcode read abundance (log10); output label 1 when value >= threshold, label 0 when value < threshold.

Please review the following examples before continuing.
MONOMER SEQUENCE | CLASS NAME
GCGCGACGGTGGGTTCTAACCTGTTGCTTAG [GCGCGACCTAA_LTGcore_GG_RTGcore_CT] (site GCGCGACCTAA) (LTG core: GG, RTG core: CT) | label 0
AGGAGGTCTTGGGTTCTAACCTGTTGCCTTC [AGGAGGTCTAG_LTGcore_CT_RTGcore_GA] (site AGGAGGTCTAG) (LTG core: CT, RTG core: GA) | label 1
CATATTACTTGGGTTCTAACCTGTTGCCTGA [CATATTACTAG_LTGcore_CT_RTGcore_TC] (site CATATTACTAG) (LTG core: CT, RTG core: TC) | label 1
TCGCGACTCTGGGTTCTAACCTGTTGCCGGA [TCGCGACCTCG_LTGcore_TC_RTGcore_TC] (site TCGCGACCTCG) (LTG core: TC, RTG core: TC) | label 0

Now let's try a different one.
**Q:** State whether the measured recombinant barcode read abundance (log10) reaches 0.1, counting equality as reaching it, for TGTATTCCTTGGGTTCTAACCTGTTGCCTCG [TGTATTCCTAG_LTGcore_CT_RTGcore_CG] (site TGTATTCCTAG) (LTG core: CT, RTG core: CG)
**A:** label 1

====

EXPERIMENT DESCRIPTION: recombinant barcode read abundance after kanamycin selection (control-corrected) (log10(CPM+1)); higher = more efficient recombination; sequences stand for … in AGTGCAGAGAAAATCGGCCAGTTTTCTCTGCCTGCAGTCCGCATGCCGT…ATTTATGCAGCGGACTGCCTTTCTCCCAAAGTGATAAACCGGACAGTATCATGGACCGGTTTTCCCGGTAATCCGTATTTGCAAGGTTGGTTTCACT; site = the 11-nt target
READOUT: recombinant barcode read abundance (log10)
Lab note: record the figure alone, no unit after it.

MONOMER SEQUENCE | READING
TGTATTCCCTGGGTTCTAACCTGTTGCCTAG [TGTATTCCTAG_LTGcore_CC_RTGcore_CT] (site TGTATTCCTAG) (LTG core: CC, RTG core: CT) | 0.168
TAAGAATCTTGGGTTCTAACCTGTTGCCTCT [TAAGAATCTAG_LTGcore_CT_RTGcore_AG] (site TAAGAATCTAG) (LTG core: CT, RTG core: AG) | 0.422
GGGAGCCTCTGGGTTCTAACCTGTTGCTGGA [GGGAGCCCTCA_LTGcore_TC_RTGcore_TC] (site GGGAGCCCTCA) (LTG core: TC, RTG core: TC) | 0.0883

**Q:** recombinant barcode read abundance (log10) lookup needed for ATGCTTTTGTGGGTTCTAACCTGTTGCCTAG [ATGCTTTCTAG_LTGcore_TG_RTGcore_CT] (site ATGCTTTCTAG) (LTG core: TG, RTG core: CT) , thanks.
**A:** 0.0287

**Q:** State the recorded recombinant barcode read abundance (log10) for this entry: TGATACCTCTGGGTTCTAACCTGTTGCGTGA [TGATACCCTAC_LTGcore_TC_RTGcore_TC] (site TGATACCCTAC) (LTG core: TC, RTG core: TC)
**A:** 0.0566

====

EXPERIMENT DESCRIPTION: recombinant UMI read abundance after kanamycin selection (control-corrected) (log10(CPM+1)); higher = more efficient recombination; extreme values may be limits of the assay; sequences stand for … in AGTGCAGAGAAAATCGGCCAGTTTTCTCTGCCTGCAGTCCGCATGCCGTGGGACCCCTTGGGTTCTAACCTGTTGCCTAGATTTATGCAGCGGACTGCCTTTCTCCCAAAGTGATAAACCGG…AGGTTGGTTTCACT; site = the 11-nt donor
recombinant UMI read abundance (log10): recorded values

Below, 5 sequences whose answers are already recorded.
MONOMER SEQUENCE | recombinant UMI read abundance (log10)
ACGTCTGCATGGACCGGTTTTCCCGGTAATCCGTATTTGCT (site ACGTCTGCTAG) | 1.98
ATTGTGCCATGGACCGGTTTTCCCGGTAATCCGTATTTGAC (site ATTGTGCCTGT) | 0.819
AGGTTTCCATGGACCGGTTTTCCCGGTAATCCGTATTTGTG (site AGGTTCCCTCA) | 0.192
GCAGTTTCATGGACCGGTTTTCCCGGTAATCCGTATTTGCA (site GCAGTTTCTTG) | 2.59
GGGGCACCATGGACCGGTTTTCCCGGTAATCCGTATTTGGA (site GGGGCACCTTT) | 0.0158

**Q:** Using the record for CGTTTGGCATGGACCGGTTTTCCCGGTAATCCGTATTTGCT (site CGTTTGACTAG) , report its recombinant UMI read abundance (log10).
**A:** 0

**Q:** Consider the sequence CCCTCCTCATGGACCGGTTTTCCCGGTAATCCGTATTTGCC (site CGCTCCTCTGG) and give its measured recombinant UMI read abundance (log10).
**A:** 0
